Below: a set of entries, each annotated with reported percent inhibition of viability.
System: YT (IL-2 2.5 ng/mL)
Assay: percent inhibition of viability; higher = more inhibition
Details: 72 h; 10000 nM
quantityKind: percent inhibition of viability (%)

compound="CN(C)Cc1ccc(S(=O)(=O)n2ccc(/C=C/C(=O)NO)c2)cc1 [Resminostat] (max concentration tested 10000 nM)" quantitykind="percent inhibition of viability" reported=105
compound="COc1ccc(-c2ccc3c(N4CCOC[C@@H]4C)nc(N4CCOC[C@@H]4C)nc3n2)cc1CO [AZD8055] (max concentration tested 10000 nM)" quantitykind="percent inhibition of viability" reported=68.3
compound="CNc1nc(-c2ccc3c(N)n[nH]c3c2)cc(N2C[C@@H](C(=O)NC3CCCCC3)CC[C@H]2C)n1 (max concentration tested 10000 nM)" quantitykind="percent inhibition of viability" reported=-1.61
compound="CNNCc1ccc(C(=O)NC(C)C)cc1 [Procarbazine] (max concentration tested 10000 nM)" quantitykind="percent inhibition of viability" reported=-8.88
compound="COc1cc(N2CCN(C)CC2)ccc1Nc1nccc(-c2cn(C)c3cnccc23)n1 [AZ191] (max concentration tested 10000 nM)" quantitykind="percent inhibition of viability" reported=41.9
compound="O=C1CCC(N2C(=O)c3ccccc3C2=O)C(=O)N1 (stereo not drawn) [Thalidomide] (max concentration tested 10000 nM)" quantitykind="percent inhibition of viability" reported=26.5
compound="CC[C@@]1(O)C(=O)OCc2c1cc1n(c2=O)Cc2cc3c(CN(C)C)c(O)ccc3nc2-1 [Topotecan] (max concentration tested 10000 nM)" quantitykind="percent inhibition of viability" reported=105
compound="Cc1nc(N)sc1-c1ccnc(Nc2ccc(N3CCOCC3)cc2)n1 [CYC-116] (max concentration tested 10000 nM)" quantitykind="percent inhibition of viability" reported=94.7
compound="Cc1nc(Nc2n[nH]c3c2CN(C(=O)N[C@H](CN(C)C)c2ccccc2)C3(C)C)c2sccc2n1 (max concentration tested 10000 nM)" quantitykind="percent inhibition of viability" reported=104
compound="NC(=O)c1cccc2cn(-c3ccc([C@@H]4CCCNC4)cc3)nc12 [Niraparib] (max concentration tested 10000 nM)" quantitykind="percent inhibition of viability" reported=34
compound="O=C(c1cc(Cc2n[nH]c(=O)c3ccccc23)ccc1F)N1CCN(C(=O)C2CC2)CC1 [Olaparib] (max concentration tested 10000 nM)" quantitykind="percent inhibition of viability" reported=22.8
compound="CC(C)C[C@H](NC(=O)[C@@H](COC(C)(C)C)NC(=O)[C@H](Cc1ccc(O)cc1)NC(=O)[C@H](CO)NC(=O)[C@H](Cc1c[nH]c2ccccc12)NC(=O)[C@H](Cc1cnc[nH]1)NC(=O)[C@@H]1CCC(=O)N1)C(=O)N[C@@H](CCCNC(=N)N)C(=O)N1CCC[C@H]1C(=O)NNC(N)=O [Goserelin] (max concentration tested 10000 nM)" quantitykind="percent inhibition of viability" reported=20.9
compound="Cc1ccc(NC(=O)c2ccc(CN3CCN(C)CC3)cc2)cc1Nc1nccc(-c2cccnc2)n1 [Imatinib] (max concentration tested 10000 nM)" quantitykind="percent inhibition of viability" reported=96.3

====

Below: a set of entries, each annotated with reported percent inhibition of viability.
Tested on: YT (IL-2 2.5 ng/mL)
Experiment: percent inhibition of viability; higher = more inhibition
Details: 72 h; 100 nM
quantityKind: percent inhibition of viability

compound="O=C1CCC(N2C(=O)c3ccccc3C2=O)C(=O)N1 (stereo unspecified) [Thalidomide] (max concentration tested 10000 nM)" reported=-5.25%
compound="CN(C[C@@H]1COCCO1)S(=O)(=O)Nc1ccc2ccc3ncc(-c4cnn(C)c4)cc3c(=O)c2c1 [MK-2461] (max concentration tested 10000 nM)" reported=-1.61%
compound="C[C@@H]1CN(Cc2ccc(F)cc2)[C@@H](C)CN1C(=O)c1cc2c(C(=O)C(=O)N(C)C)cn(C)c2cc1Cl [Talmapimod] (max concentration tested 10000 nM)" reported=4.73%
compound="CNc1nc(-c2ccc3c(N)n[nH]c3c2)cc(N2C[C@@H](C(=O)NC3CCCCC3)CC[C@H]2C)n1 (max concentration tested 10000 nM)" reported=-0.96%
compound="CN(C)C[C@@H]1CCn2cc(c3ccccc32)C2=C(C(=O)NC2=O)c2cn(c3ccccc23)CCO1 [Ruboxistaurin] (max concentration tested 10000 nM)" reported=-3.02%
compound="CN[C@@H]1C[C@H]2O[C@@](C)([C@@H]1OC)n1c3ccccc3c3c4c(c5c6ccccc6n2c5c31)C(=O)N[C@H]4O [UCN-01] (max concentration tested 10000 nM)" reported=28.1%
compound="C1=N/C2=N/c3ccc(OCCN4CCCC4)c(c3)COC/C=C/COCc3cccc(c3)C(=C1)N2 [Pacritinib] (max concentration tested 10000 nM)" reported=-1.84%
compound="C/C(=C\\c1csc(C)n1)[C@@H]1C[C@@H]2O[C@]2(C)CCC[C@H](C)[C@H](O)[C@@H](C)C(=O)C(C)(C)[C@@H](O)CC(=O)N1 [Ixabepilone] (max concentration tested 1000 nM)" reported=1.21%
compound="CCCCCOC(=O)Nc1nc(=O)n([C@@H]2O[C@H](C)[C@@H](O)[C@H]2O)cc1F [Capecitabine] (max concentration tested 10000 nM)" reported=-2.55%
compound="NC(=O)c1cccc2cn(-c3ccc([C@@H]4CCCNC4)cc3)nc12 [Niraparib] (max concentration tested 10000 nM)" reported=-0.5%
compound="CCNC(=O)c1noc(-c2cc(C(C)C)c(O)cc2O)c1-c1ccc(CN2CCOCC2)cc1 [Luminespib] (max concentration tested 1000 nM)" reported=89.6%

====

Below: a set of entries, each annotated with reported percent inhibition of viability.
Test system: KHYG-1 (IL-2 2.5 ng/mL)
Experiment: percent inhibition of viability; higher = more inhibition
Conditions: 72 h; 100 nM
quantityKind: percent inhibition of viability (%)

compound="CC(C)C(=O)Nc1ccc([N+](=O)[O-])c(C(F)(F)F)c1 [Flutamide] (max concentration tested 10000 nM)" unitname=% reported=-9.49
compound="CO[C@@H]1[C@H](N(C)C(=O)c2ccccc2)C[C@H]2O[C@]1(C)n1c3ccccc3c3c4c(c5c6ccccc6n2c5c31)C(=O)NC4 [Midostaurin] (max concentration tested 10000 nM)" unitname=% reported=17
compound="CC(C)n1nc(-c2ccc3oc(N)nc3c2)c2c(N)ncnc21 [INK128] (max concentration tested 1000 nM)" unitname=% reported=33
compound="Cc1nc(C(=O)NCC(=O)O)c(O)c2ccc(Oc3ccccc3)cc12 [FG-4592] (max concentration tested 10000 nM)" unitname=% reported=2.3
compound="CO[C@H]1/C=C\\C=C(/C)C(=O)NC2=CC(=O)C(NCCN(C)C)=C(C[C@@H](C)C[C@H](OC)[C@H](O)[C@@H](C)/C=C(\\C)[C@@H]1OC(N)=O)C2=O [Alvespimycin] (max concentration tested 1000 nM)" unitname=% reported=55.2
compound="CS(=O)(=O)N1CCc2c(-c3cnc(N)nc3)nc(N3CCOCC3)nc21 (max concentration tested 10000 nM)" unitname=% reported=-0.03
compound="COc1ccc(-c2nc(N3CCOCC3)c3sc(CN(C)c4ncc(C(=O)NO)cn4)cc3n2)cn1 [CUDC-907] (max concentration tested 10000 nM)" unitname=% reported=103
compound="O=C(NC1CCNCC1)c1n[nH]cc1NC(=O)c1c(Cl)cccc1Cl [AT7519] (max concentration tested 10000 nM)" unitname=% reported=1.67
compound="CC(C)N(CCCNC(=O)Nc1ccc(C(C)(C)C)cc1)C[C@H]1O[C@@H](n2cc(Br)c3c(N)ncnc32)[C@H](O)[C@@H]1O [SGC0946] (max concentration tested 10000 nM)" unitname=% reported=-1.47
compound="O=NN(CCCl)C(=O)NC1CCCCC1 [Lomustine] (max concentration tested 10000 nM)" unitname=% reported=-3.58
compound="c1ccc([C@H]2CN3CCSC3=N2)cc1 [Levamisole] (max concentration tested 10000 nM)" unitname=% reported=-4.9
compound="CNC(=O)c1nn(C)c2c1C(C)(C)Cc1cnc(Nc3ccc(N4CCN(C)CC4)cc3)nc1-2 [Milciclib] (max concentration tested 10000 nM)" unitname=% reported=16.2

====

Below: a set of entries, each annotated with reported drug sensitivity score.
Tested on: IMC-1 (IL-2 20 ng/mL)
Test: drug sensitivity score (DSS) (DSS units); higher = more sensitive; extreme values may be limits of the assay
Conditions: 72 h
quantityKind: drug sensitivity score

compound="COc1cc2ncnc(Nc3ccc(F)c(Cl)c3)c2cc1NC(=O)/C=C/CN1CCCCC1 [Dacomitinib] (max concentration tested 1000 nM)" assayedsystem="IMC-1 (IL-2 20 ng/mL)" quantitykind="drug sensitivity score" reported=0.74
compound="COc1ccc(COc2cc3oc(=O)c4cc(C(C)O)ccc4c3cc2OC)cc1 (stereo not drawn) [Palomid-529] (max concentration tested 10000 nM)" assayedsystem="IMC-1 (IL-2 20 ng/mL)" quantitykind="drug sensitivity score" reported=0
compound="CC(C)C(=O)Nc1ccc([N+](=O)[O-])c(C(F)(F)F)c1 [Flutamide] (max concentration tested 10000 nM)" assayedsystem="IMC-1 (IL-2 20 ng/mL)" quantitykind="drug sensitivity score" reported=0.02
